biological target: T1, Her008P, full-length extracellular domain (ECD) of Her2 expressed with a mIgG2a Fc tail (human; murine, UniProt P04626 23-652); assay: ELISA, soluble scFv on ECD
T1 construct: also called SIIS; SIIS (Dimer); not shown: murine IgG2a Fc tail

{"columns": ["binder", "binding result"],
 "data": [
  ["S1R3A1_CS_1B9 (scFv, V domains shown, scFv, soluble from bacterial periplasm in the screen; also called Her2_S1R3A1_CS_1B9) VH: KVQLVQSGTEVKKPGESLKISCQGSGYRFSSDWIAWVRQMPGKGLEWMGIVYPGDSDTRYSPSFQGQVTISADKSISTAYLQWSGLKASDTAKYYCARVQQAVGAKGYAMDVWGKGTLVTVSS VL: QTVVIQEPSFSVSPGGTVTLTCGLSSGSVSTSYYPSWYRQTPGQAPHTLIHNTKIRSSGVPDRFSGSILGNNAALTITGAQADDESDYYCLLYMGSGIYVFGGGTKLTVL", "binds"],
  ["S1R3B2_BMV_1G2 (scFv, V domains shown, scFv, on phage in the screen; also called Her2_S1R3B2_BMV_1G2) VH: QVQLVQSGAEVKKPGSSVKVSCKASGYTFTSYGISWVRQAPGQGLEWMGWISAYNGNTNYAQKLQGRVTMTTDTSTSTAYMELRSLRSDDTAVYYCARVPGVSGSYPDYYYMDVWGKGTLVTVSS VL: DIQMTQSPSTLSASIGDRVTITCRASEGIYHWLAWYQQKPGKAPKLLIYKASSLASGAPSRFSGSGSGTDFTLTISSLQPDDFATYYCQQYSNYPLTFGGGTKLEIK", "binds"],
  ["S1R3B1_BMV_1H5 (scFv, V domains shown, scFv, soluble from bacterial periplasm in the screen; also called Her2_S1R3B1_BMV_1H5) VH: QVQLQESGGGVVQPGGSLRLSCAASGFTFSGYGMHWVRQAPGKGLEWVASVRNDGSNTYYTDSVKDRFTISRDNTKNTLYLQMNSLRAEDTAVYYCAKSRRVMYGTSYYFDYWGRGTLVTVSS VL: SSELTQDPAVSVALGQTVRITCQGDSLRSYYASWYQQKPGQAPVLVIYGKNNRPSGIPDRFSGSSSGNTASLTITGAQAEDEADYYCNSRDSSGNHVVFGGGTKLTVL", "binds"]
]}
